Reported peptide exchange yield by item:
biological target: T1, HLA-A*01:01 (human); assay: UV-ligand exchange, anti-b2m ELISA; exchange yield grade (+ >10%, ++ >20%, +++ >50, ++++ >75%)
T1 construct: Peptide-receptive MHC monomer made by UV cleavage of a UV-sensitive peptide

Which peptide exchange yield is reported for this binder? EVSNGKWLLY
50 to 75%

Which peptide exchange yield is reported for this binder? RSDPGGGGLAY
50 to 75%

Which peptide exchange yield is reported for this binder? YSDLHAFYY
> 75%

Which peptide exchange yield is reported for this binder? LTDSFPLKV
50 to 75%

Which peptide exchange yield is reported for this binder? FADKIHLAY
50 to 75%

Which peptide exchange yield is reported for this binder? RSDPVTLDV
50 to 75%
